Hey, just so you know, these numbers are from the supplement of paper PMC11908140.

B1: library; numbered along this chain (parent)
chain: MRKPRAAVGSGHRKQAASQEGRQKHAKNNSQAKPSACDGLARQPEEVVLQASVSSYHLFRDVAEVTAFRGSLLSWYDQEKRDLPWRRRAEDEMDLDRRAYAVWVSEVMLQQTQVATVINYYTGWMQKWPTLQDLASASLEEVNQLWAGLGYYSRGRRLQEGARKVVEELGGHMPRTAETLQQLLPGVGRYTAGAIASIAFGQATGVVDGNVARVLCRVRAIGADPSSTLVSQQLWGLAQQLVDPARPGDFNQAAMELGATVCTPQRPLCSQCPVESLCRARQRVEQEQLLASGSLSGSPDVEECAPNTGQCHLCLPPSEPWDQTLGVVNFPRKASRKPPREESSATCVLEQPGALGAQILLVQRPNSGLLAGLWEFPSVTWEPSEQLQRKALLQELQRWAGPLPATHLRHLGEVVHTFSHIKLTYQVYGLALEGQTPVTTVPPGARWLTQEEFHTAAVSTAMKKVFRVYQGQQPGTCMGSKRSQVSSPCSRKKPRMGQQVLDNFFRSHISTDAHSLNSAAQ

- Variants of: B1
- Assay Details: 8OG:A repair function score (normalized; synonymous = 0, nonsense = -1) (normalized log-likelihood score); higher = more repair activity (WT-like);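 note: cells sorted at 72 h after reporter transfection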
- Settings: with 8OG:A DNA repair reporter (GFP) in HEK-293 MUTYH KO cells
Reported Endpoint: 8OG:A repair function score
Numbers only.

Example entries and their recorded answers appear below.
Variant: V379G
Value: -0.37
--
Variant: F418Y
Value: -0.368
--
Variant: P494Q
Value: -0.000555
--
Variant: S343K
Value: 0.133
--
Variant: R409Q
Value: -0.332

# map each variant to its 8OG:A repair function score
1. L49E
2. P404C
3. E106W
4. W447M
5. R42A
6. Q310R

Key:
[0.0582, -0.224, -1.04, -0.801, 0.112, -0.0435]
